Test system: Serrtia liquefaciens SL 1326 S
Assay: MIC on strain not producing beta-lactamase, Serratia liquefaciens SL 1326 S (Table IV)
Type: cell-based
Conditions: SL1326S, not producing beta-lactamases
Protocol: To evaluate the stability of these products towards beta-lactamases, their MIC was determined on isogenic strains producing and not producing beta-lactamases. The results are expressed in μg/ml in Table IV.
Examples of compounds with documented MIC follow.

Worked cases, MIC given:
compound	metric.name	observed
CC(C)(CN)C(=O)OCC1=C(C(=O)O)N2C(=O)C(NC(=O)/C(=N\OC(C)(C)C(=O)O)c3csc(N)n3)C2[S+]([O-])C1 (stereo not shown) [42 073]	MIC	≤ 0.12 µg/mL
CC(C)(O/N=C(\C(=O)NC1C(=O)N2C(C(=O)O)=C(COC(=O)C3CCNCC3)C[S+]([O-])C12)c1csc(N)n1)C(=O)O (stereo not shown) [41 862]	MIC	≤ 0.12 µg/mL

Request: Looking for the measured MIC of CC(C)(ON=C(C(=O)NC1C(=O)N2C(C(=O)O)=C(COC(=O)c3ccc(NC(=O)CCN)cc3)C[S+]([O-])C12)c1csc(N)n1)C(=O)O (stereo not shown) [42 546] , can you help?
Result: ≤ 0.0312 µg/mL

Request: Value lookup for MIC; key = CC(C)(O/N=C(\C(=O)NC1C(=O)N2C(C(=O)O)=C(COC(=O)c3cccc(CN)c3)C[S+]([O-])C12)c1csc(N)n1)C(=O)O (stereo not shown) [42 320]
Result: ≤ 0.0312 µg/mL

Request: Fill in: MIC of CNCc1ccc(C(=O)OCC2=C(C(=O)O)N3C(=O)C(NC(=O)/C(=N\OC(C)(C)C(=O)O)c4csc(N)n4)C3[S+]([O-])C2)cc1 (stereo not shown) [42 395] is ___
Result: ≤ 0.0312 µg/mL

Request: May I ask what MIC has been recorded for CNCCCC(=O)OCC1=C(C(=O)O)N2C(=O)C(NC(=O)/C(=N\OC(C)(C)C(=O)O)c3csc(N)n3)C2[S+]([O-])C1 (stereo not shown) [42 028] ?
Result: ≤ 0.06 µg/mL

Request: Give the measured MIC of CC(N)CCC(=O)OCC1=C(C(=O)O)N2C(=O)C(NC(=O)C(=NOC(C)(C)C(=O)O)c3csc(N)n3)C2[S+]([O-])C1 (stereo not shown) [42 027] .
Result: ≤ 0.06 µg/mL

###

test system: Enterobacter RO 154; assay: MIC, in vitro dilution method, Enterobacter RO 154 (Table III); type: cell-based; details: RO154; Enterobacter RO 154; dilution method; read-out: MIC
metric.name: MIC

// worked examples, MIC included
compound	MIC
NC[C@H]1CC[C@H](C(=O)OCC2=C(C(=O)O)N3C(=O)C(NC(=O)/C(=N\OC4(C(=O)O)CCC4)c4csc(N)n4)C3[S+]([O-])C2)CC1 (stereo partly drawn)	≤ 0.12 µg/mL
CC(O/N=C(\C(=O)NC1C(=O)N2C(C(=O)O)=C(COC(=O)CCCCN)C[S+]([O-])C12)c1csc(N)n1)C(=O)O (stereo not drawn)	≤ 0.12 µg/mL

With those in mind, consider the next compound.
Request: Suppose we examine the compound Cc1cc(C(=O)OCC2=C(C(=O)O)N3C(=O)C(NC(=O)/C(=N\OC4(C(=O)O)CCC4)c4csc(N)n4)C3[S+]([O-])C2)ccc1CN (stereo not drawn) ; what MIC value has been reported?
Result: ≤ 0.125 µg/mL

###

test system: Escherichia coli SOL 90; test: MIC, in vitro dilution method, Escherichia coli SOL 90 (Table III); type: cell-based; details: SOL90; Escherichia coli SOL 90; dilution method; read-out: MIC
metric.name: MIC (µg/mL)
Reply with just the number (in µg/mL).

Study these solved cases before continuing.
compound	metric.name	observed
NCc1cccc(C(=O)SCC2=C(C(=O)O)N3C(=O)C(NC(=O)C(=NOC4(C(=O)O)CCC4)c4csc(N)n4)C3[S+]([O-])C2)c1 (stereo not drawn)	MIC	0.5
NCCC(=O)Nc1ccc(C(=O)OCC2=C(C(=O)O)N3C(=O)C(NC(=O)C(=NOC4(C(=O)O)CCC4)c4csc(N)n4)C3[S+]([O-])C2)cc1 (stereo not drawn)	MIC	0.125
CC(C)(O/N=C(\C(=O)NC1C(=O)N2C(C(=O)O)=C(COC(=O)CCN)C[S+]([O-])C12)c1csc(N)n1)C(=O)O (stereo not drawn)	MIC	0.5
Nc1nc(/C(=N/OC2(C(=O)O)CCC2)C(=O)NC2C(=O)N3C(C(=O)O)=C(COC(=O)C4(N)CCCC4)C[S+]([O-])C23)cs1 (stereo not drawn)	MIC	1

Request: # get_value(readout='MIC', item= Cc1ccc(CN)c(C)c1C(=O)OCC1=C(C(=O)O)N2C(=O)C(NC(=O)C(=NOC3(C(=O)O)CCC3)c3csc(N)n3)C2[S+]([O-])C1 (stereo not drawn) )
Result: 0.5

###

System: Enterobacter RO 154
Experiment: MIC, in vitro dilution method, Enterobacter RO 154 (Table III)
Format: cell-based
Conditions: RO154; Enterobacter RO 154; dilution method; read-out: MIC
Description: The products of the invention have been studied as regards their pharmacological properties and, more especially, bacteriostatic action. This has been determined in vitro by the dilution method, and the study was on Gram negative strains. Results, expressed in minimum inhibiting concentrations (MIC-- μg/ml), are collected in the following table (Table III).
In this section we review reported MIC values for a set of compounds.
Write your answer as a measured quantity: the number, then the unit.

compound	experimental.system	MIC
CNCCCC(=O)OCC1=C(C(=O)O)N2C(=O)C(NC(=O)/C(=N\OC(C)(C)C(=O)O)c3csc(N)n3)C2[S+]([O-])C1 (stereo not drawn) [42 028]	Enterobacter RO 154	2 µg/mL
NCC(=O)N1CCC(C(=O)SCC2=C(C(=O)O)N3C(=O)C(NC(=O)C(=NOC4(C(=O)O)CCC4)c4csc(N)n4)C3[S+]([O-])C2)CC1 (stereo not drawn) [compound 42674]	Enterobacter RO 154	2 µg/mL

Moving on to another compound below.
Request: Field request: MIC | item: Cc1cc(CN)ccc1C(=O)SCC1=C(C(=O)O)N2C(=O)C(NC(=O)C(=NOC(C)(C)C(=O)O)c3csc(N)n3)C2[S+]([O-])C1 (stereo not drawn) [compound 42850]
Result: 2 µg/mL

###

Property: MIC; scope: individual molecules
test system: Serrtia liquefaciens SL 1326 S; test: MIC on strain not producing beta-lactamase, Serratia liquefaciens SL 1326 S (Table IV); format: cell-based; settings: SL1326S, not producing beta-lactamases

molecule	MIC
CNCc1ccc(C(=O)SCC2=C(C(=O)O)N3C(=O)C(NC(=O)C(=NOC(C)(C)C(=O)O)c4csc(N)n4)C3[S+]([O-])C2)cc1 (stereo not shown)	≤ 0.0312 µg/mL

Request: Recall the recorded MIC for CC(C)(O/N=C(\C(=O)NC1C(=O)N2C(C(=O)O)=C(COC(=O)C3(N)CCCC3)C[S+]([O-])C12)c1csc(N)n1)C(=O)O (stereo not shown) with Serrtia liquefaciens SL 1326 S and state it.
Result: ≤ 0.12 µg/mL

Request: Find MIC (Serrtia liquefaciens SL 1326 S) for the entry CC(C)(O/N=C(\C(=O)NC1C(=O)N2C(C(=O)O)=C(COC(=O)c3ccc(CN)cc3)C[S+]([O-])C12)c1csc(N)n1)C(=O)O (stereo not shown)
Result: ≤ 0.12 µg/mL

Request: // fetch Serrtia liquefaciens SL 1326 S MIC for CC(C)(O/N=C(\C(=O)NC1C(=O)N2C(C(=O)O)=C(COC(=O)[C@H]3CC[C@H](CN)CC3)C[S+]([O-])C12)c1csc(N)n1)C(=O)O (stereo partly shown)
Result: ≤ 0.06 µg/mL

###

We begin with a simple list: items and their reported MIC.
system: Escherichia coli SOL 90; assay: MIC, in vitro dilution method, Escherichia coli SOL 90 (Table III); format: cell-based; conditions: SOL90; Escherichia coli SOL 90; dilution method; read-out: MIC

Request: Look at this molecule and give its reported MIC. CCNCc1ccc(C(=O)OCC2=C(C(=O)O)N3C(=O)C(NC(=O)/C(=N\OC(C)(C)C(=O)O)c4csc(N)n4)C3[S+]([O-])C2)cc1 (stereo not shown) [42 396]
Result: ≤ 0.125 µg/mL

Request: Value lookup for MIC; key = NC[C@H]1CC[C@H](C(=O)OCC2=C(C(=O)O)N3C(=O)C(NC(=O)/C(=N\OC4(C(=O)O)CCC4)c4csc(N)n4)C3[S+]([O-])C2)CC1 (stereo partly shown) [42 212]
Result: ≤ 0.12 µg/mL

Request: Fill in: MIC of CC(C)(O/N=C(\C(=O)NC1C(=O)N2C(C(=O)O)=C(COC(=O)c3cccc(NC(=O)CCN)c3)C[S+]([O-])C12)c1csc(N)n1)C(=O)O (stereo not shown) [42 465] is ___
Result: ≤ 0.125 µg/mL

Request: GET /values?readout=MIC&item= CC(O/N=C(\C(=O)NC1C(=O)N2C(C(=O)O)=C(COC(=O)[C@H]3CC[C@H](CN)CC3)C[S+]([O-])C12)c1csc(N)n1)C(=O)O (stereo partly shown) [42 217]
Result: ≤ 0.12 µg/mL
